# studySystem: CYP2C19 (Homo sapiens)
# Sequence (P33261 whole entry): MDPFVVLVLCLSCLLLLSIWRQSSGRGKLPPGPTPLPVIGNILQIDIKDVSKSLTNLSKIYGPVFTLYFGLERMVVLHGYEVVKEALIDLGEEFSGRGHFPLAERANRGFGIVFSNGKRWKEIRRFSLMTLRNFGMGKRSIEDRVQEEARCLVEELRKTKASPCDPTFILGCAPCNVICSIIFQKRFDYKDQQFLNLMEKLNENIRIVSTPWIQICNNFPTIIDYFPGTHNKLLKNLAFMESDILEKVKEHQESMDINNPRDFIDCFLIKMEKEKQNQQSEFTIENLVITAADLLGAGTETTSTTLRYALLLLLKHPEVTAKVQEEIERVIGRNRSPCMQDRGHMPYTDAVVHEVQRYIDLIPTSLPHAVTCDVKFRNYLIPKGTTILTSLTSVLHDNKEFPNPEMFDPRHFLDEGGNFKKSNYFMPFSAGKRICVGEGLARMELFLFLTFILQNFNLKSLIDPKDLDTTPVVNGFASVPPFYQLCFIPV
# assayExplanation: Vivid CYP2C19 blue fluorescent assay
# conditionDetails: human
readout: inhibition at 30 min, 50 µM (%)
Answers are plain numbers, in %.

Ask | Look up and report measured inhibition at 30 min, 50 µM for this entry: CC(C)=CCC[C@](C)(O)[C@H]1CC[C@]2(C)[C@@H]1[C@H](O)C[C@@H]1[C@@]3(C)CC[C@H](O)C(C)(C)[C@@H]3[C@@H](O[C@@H]3O[C@H](CO)[C@@H](O)[C@H](O)[C@H]3O[C@@H]3O[C@@H](C)[C@H](O)[C@@H](O)[C@H]3O)C[C@]12C [Rg2]
Reply | 14.8

###

Give IC50 for every item shown.
# studySystem: UniProt:P05177
# Sequence (P05177 1-516): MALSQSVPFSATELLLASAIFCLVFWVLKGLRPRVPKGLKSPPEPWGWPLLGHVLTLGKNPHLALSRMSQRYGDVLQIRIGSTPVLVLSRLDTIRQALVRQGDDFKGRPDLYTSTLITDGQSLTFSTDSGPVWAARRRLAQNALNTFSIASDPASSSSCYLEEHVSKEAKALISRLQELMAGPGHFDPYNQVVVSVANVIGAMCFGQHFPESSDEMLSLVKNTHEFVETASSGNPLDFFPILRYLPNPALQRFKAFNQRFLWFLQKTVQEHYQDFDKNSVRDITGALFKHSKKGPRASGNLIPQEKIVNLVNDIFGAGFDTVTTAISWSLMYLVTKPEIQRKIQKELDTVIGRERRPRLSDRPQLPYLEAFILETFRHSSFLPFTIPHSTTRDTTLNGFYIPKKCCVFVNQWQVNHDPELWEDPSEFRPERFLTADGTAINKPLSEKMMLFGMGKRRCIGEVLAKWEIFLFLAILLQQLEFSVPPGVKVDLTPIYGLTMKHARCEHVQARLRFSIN
Give bare numbers, in µM.

[
  {
    "itemSmiles": "CC(C)=CCC[C@](C)(O)[C@H]1CC[C@]2(C)[C@@H]1[C@H](O)C[C@@H]1[C@@]3(C)CC[C@H](O)C(C)(C)[C@@H]3CC[C@]12C",
    "readout": "IC50",
    "resultValue": 86.6
  }
]

Now for the compound whose IC50 we want.
Ask | Look up and report measured IC50 for this entry: `CC(C)=CCC[C@](C)(O)[C@H]1CC[C@]2(C)[C@@H]1[C@H](O)C[C@@H]1[C@@]3(C)CC[C@H](O[C@@H]4O[C@H](CO)[C@@H](O)[C@H](O)[C@H]4O[C@@H]4O[C@H](CO)[C@@H](O)[C@H](O)[C@H]4O)C(C)(C)[C@@H]3CC[C@]12C`
Reply | 32.4

###

# studySystem: CYP3A4 (Homo sapiens)
# Sequence (P08684 whole entry): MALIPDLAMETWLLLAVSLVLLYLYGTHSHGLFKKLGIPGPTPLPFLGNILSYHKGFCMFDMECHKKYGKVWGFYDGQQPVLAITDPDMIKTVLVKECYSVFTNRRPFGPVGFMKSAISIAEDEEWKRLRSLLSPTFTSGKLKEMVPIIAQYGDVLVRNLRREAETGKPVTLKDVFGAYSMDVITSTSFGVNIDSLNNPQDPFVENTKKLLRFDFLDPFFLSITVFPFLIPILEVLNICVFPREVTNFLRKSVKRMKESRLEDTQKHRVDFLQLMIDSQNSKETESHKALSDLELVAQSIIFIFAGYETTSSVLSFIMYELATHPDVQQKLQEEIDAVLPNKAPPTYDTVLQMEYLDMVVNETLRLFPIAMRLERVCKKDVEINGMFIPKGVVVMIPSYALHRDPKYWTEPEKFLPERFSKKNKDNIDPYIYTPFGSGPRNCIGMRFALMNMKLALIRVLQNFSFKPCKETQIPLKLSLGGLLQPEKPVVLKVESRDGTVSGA
# assayExplanation: Vivid CYP3A4 green fluorescent assay
# conditionDetails: human, recombinant (cDNA-expressed) CYP3A4 BACULOSOMES, probe Vivid green substrate 2 µM
Give inhibition at 30 min, 50 µM for every item shown.
Give bare numbers, in %.

[
  {
    "itemSmiles": "CC(C)=CCC[C@](C)(O[C@@H]1O[C@H](CO[C@@H]2O[C@H](CO)[C@@H](O)[C@H](O)[C@H]2O)[C@@H](O)[C@H](O)[C@H]1O)[C@H]1CC[C@]2(C)[C@@H]1[C@H](O)C[C@@H]1[C@@]3(C)CC[C@H](O[C@@H]4O[C@H](CO)[C@@H](O)[C@H](O)[C@H]4O[C@@H]4O[C@H](CO)[C@@H](O)[C@H](O)[C@H]4O)C(C)(C)[C@@H]3CC[C@]12C",
    "studySystem": "CYP3A4 (Homo sapiens)",
    "inhibition at 30 min, 50 µM / %": 10.1
  }
]

Please give inhibition at 30 min, 50 µM for each item listed below.
1. CC(C)=CCC[C@](C)(O[C@@H]1O[C@H](CO)[C@@H](O)[C@H](O)[C@H]1O)[C@H]1CC[C@]2(C)[C@@H]1[C@H](O)C[C@@H]1[C@@]3(C)CC[C@H](O)C(C)(C)[C@@H]3[C@@H](O[C@@H]3O[C@H](CO)[C@@H](O)[C@H](O)[C@H]3O[C@@H]3O[C@@H](C)[C@H](O)[C@@H](O)[C@H]3O)C[C@]12C
2. CC(C)=CCC[C@](C)(O[C@@H]1O[C@H](CO)[C@@H](O)[C@H](O)[C@H]1O)[C@H]1CC[C@]2(C)[C@@H]1[C@H](O)C[C@@H]1[C@@]3(C)CC[C@H](O[C@@H]4O[C@H](CO)[C@@H](O)[C@H](O)[C@H]4O[C@@H]4O[C@H](CO)[C@@H](O)[C@H](O)[C@H]4O)C(C)(C)[C@@H]3CC[C@]12C

Reply |
1. 4.3
2. 12.6

Ask | Look up and report measured inhibition at 30 min, 50 µM for this entry: `CC(C)=CCC[C@](C)(O[C@@H]1O[C@H](CO)[C@@H](O)[C@H](O)[C@H]1O)[C@H]1CC[C@]2(C)[C@@H]1[C@H](O)C[C@@H]1[C@@]3(C)CC[C@H](O)C(C)(C)[C@@H]3[C@@H](O[C@@H]3O[C@H](CO)[C@@H](O)[C@H](O)[C@H]3O)C[C@]12C`
Reply | 8.1
